Target Desc: Anti-CD28 Fab (SEQ ID NOs: 696, 697)
Sequence (VH, as listed by the source, chain 1 of 2): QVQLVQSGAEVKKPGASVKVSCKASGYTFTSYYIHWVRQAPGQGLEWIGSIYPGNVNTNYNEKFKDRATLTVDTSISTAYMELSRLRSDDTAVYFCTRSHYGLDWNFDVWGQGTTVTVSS
Sequence (VL, as listed by the source, chain 2 of 2): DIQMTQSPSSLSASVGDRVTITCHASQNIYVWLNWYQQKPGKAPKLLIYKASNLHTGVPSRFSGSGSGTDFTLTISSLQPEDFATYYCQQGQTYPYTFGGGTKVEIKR
Experimental Protocol: phage binding ELISA; captured anti-CD28 Fab pre-incubated with CD28 antigen as competitor, anti-M13 HRP detection
Where no end group is shown, it is not given here.
Each entry below carries its reported Anti-CD28 Fab signal in the presence of CD28.
Readout Label: Anti-CD28 Fab signal in the presence of CD28

[
  {
    "Binder": "YCEGHRPEYMQKCL (cysteine pairing not given here; also: displayed on phage by fusion to pIII, pIII and linker sequence not given here) [Phage-699]",
    "Quantitative Result": 0.11
  },
  {
    "Binder": "YCQGHLPEYMSKCL (cysteine pairing not given here; also: displayed on phage by fusion to pIII, pIII and linker sequence not given here) [Phage-708]",
    "Quantitative Result": 0.06
  },
  {
    "Binder": "YCEGHSPEYMTKCL (cysteine pairing not given here; also: displayed on phage by fusion to pIII, pIII and linker sequence not given here) [Phage-701]",
    "Quantitative Result": 0.08
  }
]
